System: Mammalian orthoreovirus 1
Test: Antiviral activity against Reovirus-1 infected in African green monkey Vero cells assessed as inhibition of virus-induced cytopathic effect after 3 to 6 days by MTS assay
Format: functional, organism-based
Calls of active or inactive are those of the source. The calls are words filed in the database; no cut-off is given here.
Test readout: Activity

The following compounds have reported results that may help.
Compound	Test readout	Experimental value
NC1=NC2(CCNCC2)N(c2cccc(Cl)c2)C(N)=N1	Activity	inactive
COCCN1C(N)=NC(N)=NC12CCN(C(=O)NC1CCC(C)CC1)CC2 (stereo not drawn)	Activity	inactive
COCCN1C(N)=NC(N)=NC12CCN(C(=O)Nc1ccc(OC)cc1)CC2	Activity	inactive
CCCN1C(N)=NC(N)=NC12CCN(C(=O)NCCC(=O)OCC)CC2	Activity	inactive
COCCN1C(N)=NC(N)=NC12CCN(C(=O)c1cccn1C)CC2	Activity	inactive

Ask: Name the value of Activity reported for CC(C)(C)OC(=O)N1CCC2(CC1)N=C(N)N=C(N)N2Cc1cccc(Cl)c1 when tested on Mammalian orthoreovirus 1.
Reply: inactive

Ask: Name the value of Activity reported for CCCN1C(N)=NC(N)=NC12CCN(S(=O)(=O)CCC)CC2 when tested on Mammalian orthoreovirus 1.
Reply: inactive

Ask: Name the value of Activity reported for COCCN1C(N)=NC(N)=NC12CCN(S(=O)(=O)c1ccccc1)CC2 when tested on Mammalian orthoreovirus 1.
Reply: inactive

====

Tested on: Punta Toro virus
Experiment: Antiviral activity against Punta Toro virus infected in African green monkey Vero cells assessed as inhibition of virus-induced cytopathic effect after 3 to 6 days by MTS assay
Assay type: functional, organism-based
The source made the active and inactive calls. No cut-off for these calls is given here.
Test readout: Activity

Compound	Activity
CC(C)(C)OC(=O)N1CCC2(CC1)N=C(N)N=C(N)N2c1cccc(Cl)c1	inactive
CCCN1C(N)=NC(N)=NC12CCN(C(=O)NCCC(=O)OCC)CC2	inactive
NC1=NC2(CCN(C(=O)C3CCC3)CC2)N(c2cccc(Cl)c2)C(N)=N1	inactive
NC1=NC2(CCNCC2)N(c2cccc(Cl)c2)C(N)=N1	inactive
COCCN1C(N)=NC(N)=NC12CCN(C(=O)c1cccn1C)CC2	inactive
CCCN1C(N)=NC(N)=NC12CCN(C(=O)c1c(C)noc1C)CC2	inactive
COCCN1C(N)=NC(N)=NC12CCN(C(=O)NC1CCC(C)CC1)CC2 (stereo not drawn)	inactive
CCS(=O)(=O)N1CCC2(CC1)N=C(N)N=C(N)N2CCOC	inactive
CC(C)(C)OC(=O)N1CCC2(CC1)N=C(N)N=C(N)N2Cc1cccc(Cl)c1	inactive
Cc1ccc(C(=O)N2CCC3(CC2)N=C(N)N=C(N)N3c2cccc(Cl)c2)cc1	inactive

Ask: Determine from records and report Activity for CCCN1C(N)=NC(N)=NC12CCN(C(=O)C1CC1)CC2
Reply: inactive

Ask: Determine from records and report Activity for NC1=NC2(CCN(C(=O)Nc3ccc(F)cc3)CC2)N(c2cccc(Cl)c2)C(N)=N1
Reply: inactive

Ask: Determine from records and report Activity for Cl.NC1=NC2(CCCN(Cc3ccccc3)C2)N(c2ccc(Cl)cc2)C(N)=N1 (stereo not drawn)
Reply: inactive

Ask: Determine from records and report Activity for CCCN1C(N)=NC(N)=NC12CCN(S(=O)(=O)CCC)CC2
Reply: inactive

Ask: Determine from records and report Activity for COCCN1C(N)=NC(N)=NC12CCN(C(=O)Nc1ccc(OC)cc1)CC2
Reply: inactive

Ask: Determine from records and report Activity for COCCN1C(N)=NC(N)=NC12CCN(S(=O)(=O)c1ccccc1)CC2
Reply: inactive

Ask: Determine from records and report Activity for COc1cccc(N2C(N)=NC(N)=NC23CCNCC3)c1
Reply: inactive

Ask: Determine from records and report Activity for Cl.NC1=NC2(CCCN(Cc3ccccc3)C2)N(c2ccccc2)C(N)=N1 (stereo not drawn)
Reply: inactive

Data provenance is ChEMBL document CHEMBL4152296.
